Field: Dmax. Provide a value for each of the compounds that follow.
- target or test system: ER in MCF-7 cells (Homo sapiens (Human))
- Sequence (P03372 whole entry): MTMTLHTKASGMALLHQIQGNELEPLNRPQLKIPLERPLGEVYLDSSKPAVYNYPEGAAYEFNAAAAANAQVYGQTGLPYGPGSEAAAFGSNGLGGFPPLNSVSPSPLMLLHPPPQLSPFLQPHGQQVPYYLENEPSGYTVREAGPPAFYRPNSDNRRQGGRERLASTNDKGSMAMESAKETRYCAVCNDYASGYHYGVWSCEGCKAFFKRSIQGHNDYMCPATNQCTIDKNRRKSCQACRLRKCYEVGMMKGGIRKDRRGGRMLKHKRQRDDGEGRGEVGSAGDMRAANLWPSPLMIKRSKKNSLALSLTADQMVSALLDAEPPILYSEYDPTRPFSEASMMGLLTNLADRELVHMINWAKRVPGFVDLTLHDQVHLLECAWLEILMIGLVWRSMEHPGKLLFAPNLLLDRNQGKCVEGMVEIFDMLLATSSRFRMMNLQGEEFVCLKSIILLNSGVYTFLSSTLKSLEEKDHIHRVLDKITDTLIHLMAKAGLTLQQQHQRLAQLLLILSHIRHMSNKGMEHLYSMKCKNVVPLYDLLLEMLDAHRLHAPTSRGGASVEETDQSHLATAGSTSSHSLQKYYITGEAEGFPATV
- protocol description: In-cell Western (ICW) ER degradation assay in MCF-7 cells
- Format: cell-based
- conditions: MCF7, MCF-7, maximal ER degradation, 16 hrs treatment; read-out: MCF7 Dmax
- Source text: In-cell Western (ICW) assays in MCF-7 and T47D cell lines. Day 3: After 16 hrs of compounds treatment, cells were fixed by 4% PFA and permeabilized with elution buffer (0.1% Triton X-100 in 1% PBS Solution). Subsequently, cells were blocked with Intercept (PBS) Blocking Buffer (Li-COR, Odyssey Blocking Buffer), and were stained with ER (1:500, Cell signaling) primary antibody for overnight at cold room. […]

O=C1CC[C@H](N2Cc3c(ccc4c3OC[C@H]3CN(C[C@@H]5COC6(C5)CN(c5ccc([C@@H]7c8ccc(O)cc8CC[C@@H]7c7ccccc7)cc5)C6)CCN43)C2=O)C(=O)N1 (single isomer, unassigned) [Compound A69] = 50 to 75%
COc1cc(N2CCC3(CC2)CC(CN2CCN4c5cc6c(cc5OC[C@@H]4C2)C(=O)N([C@H]2CCC(=O)NC2=O)C6)C3)ccc1[C@@H]1c2ccc(O)cc2CC[C@@H]1c1ccccc1 (single isomer, unassigned) [Compound A12] = > 75%

For each entry beneath this line, provide reported Dmax.
1. O=C1CC[C@H](N2Cc3cc4c(cc3C2=O)OC[C@@H]2CN(CC3CC5(CCN(c6ccc([C@@H]7c8ccc(O)cc8CC[C@@H]7c7ccccc7)cc6F)CC5)C3)CCN42)C(=O)N1 (single isomer, unassigned) [Compound A150]
2. O=C1CC[C@H](N2Cc3c(ccc4c3OC[C@H]3CN(CC5COC6(C5)CN(c5ccc([C@H]7c8ccc(O)cc8CC[C@H]7c7ccccc7)cc5)C6)CCN43)C2=O)C(=O)N1 (single isomer, unassigned) [Compound A41]
3. COc1cc(N2CCC3(CC2)CC(CN2CCC(c4ccc(N[C@@H]5CCC(=O)NC5=O)cc4)CC2)C3)c(F)cc1[C@H]1c2ccc(O)cc2CC[C@H]1c1ccccc1 (single isomer, unassigned) [Compound A46]
4. COc1cc(N2CCC3(CC2)CC(CN2CCN4c5ccc6c(c5OC[C@H]4C2)CN([C@H]2CCC(=O)NC2=O)C6=O)C3)c(F)cc1[C@@H]1c2ccc(O)cc2CC[C@@H]1c1ccccc1 [Compound A99]

Result string:
1: 50 to 75%; 2: > 75%; 3: 25 to 50%; 4: > 75%

---

Can you tell me Dmax for the items I'm about to list?
- target or test system: ER in T47D cells (Homo sapiens (Human), UniProt P03372)
- protocol description: In-cell Western (ICW) ER degradation assay in T47D cells
- Assay type: cell-based
- conditions: read-out: T47D Dmax, T47D, maximal ER degradation, 16 hrs treatment

Field: example entries. Status: answers known.
O=C1CC[C@H](N2Cc3c(ccc4c3OCC43CCN(CC4CCC5(CC4)CN(c4ncc([C@@H]6c7ccc(O)cc7CC[C@@H]6c6ccccc6)cn4)C5)CC3)C2=O)C(=O)N1 = > 75%
COc1cc(N2CCC3(CC2)C[C@H](CN2CCC4(CC2)COc2cc5c(cc24)CN([C@H]2CCC(=O)NC2=O)C5=O)CO3)c(F)cc1[C@@H]1c2ccc(O)cc2CC[C@@H]1c1ccccc1 = > 75%
COc1cc(N2CCC3(CC2)CC(CN2CCC4(CC2)COc2c4ccc4c2CN([C@H]2CCC(=O)NC2=O)C4=O)CO3)ccc1[C@@H]1c2ccc(O)cc2CC[C@@H]1c1ccccc1 (stereo partly shown) = 50 to 75%

Look up Dmax for the entries below, preserving their order.
1. O=C1CC[C@H](N2Cc3cc4c(cc3C2=O)OCC42CCN(C[C@@H]3COC4(CCN(c5ccc([C@H]6c7ccc(O)cc7CC[C@H]6c6ccccc6)cc5)CC4)C3)CC2)C(=O)N1
2. COc1cc(N2CCC(CN3CCC4(CC3)COc3c4ccc4c3CN([C@H]3CCC(=O)NC3=O)C4=O)CC2)c(F)cc1[C@@H]1c2ccc(O)cc2CC[C@@H]1c1ccccc1

Result string:
["> 75%", "50 to 75%"]

Dear reader, for each entry below, please note its Dmax.
1. COc1cc(N2CCC(CN3CCC4(CC3)COc3cc5c(cc34)CN([C@H]3CCC(=O)NC3=O)C5=O)CC2)ccc1[C@@H]1c2ccc(O)cc2CC[C@@H]1c1ccccc1
2. COc1cc(N2CCC3(CC2)CC(CN2CCN4c5cc6c(cc5OC[C@@H]4C2)C(=O)N([C@H]2CCC(=O)NC2=O)C6)CO3)ccc1[C@H]1c2ccc(O)cc2CC[C@H]1c1ccccc1 (single isomer, unassigned)

Result string:
1: 50 to 75%; 2: > 75%

---

Can you tell me Dmax for the items I'm about to list?
- target or test system: ER in T47D cells (Homo sapiens (Human), UniProt P03372)
- protocol description: In-cell Western (ICW) ER degradation assay in T47D cells
- Type: cell-based
- conditions: maximal ER degradation, 16 hrs treatment, read-out: T47D Dmax

O=C1CCC(NC(=O)c2ccc3c(n2)OC[C@H]2CN(CC4CCN(c5ccc([C@@H]6c7ccc(O)cc7CC[C@@H]6c6ccccc6)cc5)CC4)CCN32)C(=O)N1 (stereo partly drawn) = > 75%
COc1cc(N2CCC3(CC2)CC(CN2CCC(c4ccc(N[C@H]5CCC(=O)NC5=O)cc4)CC2)C3)c(F)cc1[C@@H]1c2ccc(O)cc2CC[C@@H]1c1ccccc1 (single isomer, unassigned) = > 75%
COc1cc(N2CCC(CN3CCN4c5ccc6c(c5OC[C@H]4C3)CN([C@H]3CCC(=O)NC3=O)C6=O)CC2)c(F)cc1[C@H]1c2ccc(O)cc2CC[C@H]1c1ccccc1 = 50 to 75%
COc1cc(N2CCC3(CC2)C[C@H](CN2CCN4c5cc6c(cc5OC[C@@H]4C2)C(=O)N([C@H]2CCC(=O)NC2=O)C6)CO3)c(F)cc1[C@@H]1c2ccc(O)cc2CC[C@@H]1c1ccccc1 = > 75%
COc1cc(N2CC3(CC(CN4CCN5c6ccc7c(c6OC[C@H]5C4)CN([C@H]4CCC(=O)NC4=O)C7=O)CO3)C2)ccc1[C@@H]1c2ccc(O)cc2CC[C@@H]1c1ccccc1 (single isomer, unassigned) = 50 to 75%
COc1cc(N2CCC(CN3CCN4c5ccc6c(c5OC[C@@H]4C3)CN([C@@H]3CCC(=O)NC3=O)C6=O)CC2)ccc1[C@H]1c2ccc(O)cc2CC[C@H]1c1ccccc1 (stereo in doubt) = > 75%
COc1cc(N2CCC(CN3CCC(c4ccc(N[C@@H]5CCC(=O)NC5=O)cc4F)CC3)CC2)ccc1[C@@H]1c2ccc(O)cc2CC[C@@H]1c1ccccc1 (single isomer, unassigned) = 50 to 75%
O=C1CC[C@H](NC(=O)c2ccc3c(n2)OC[C@H]2CN(C[C@@H]4COC5(CCN(c6ccc([C@@H]7c8ccc(O)cc8CC[C@@H]7c7ccccc7)cc6)CC5)C4)CCN32)C(=O)N1 (single isomer, unassigned) = 50 to 75%

With those in mind, consider the next compound.
Query string: What value of measured Dmax is listed for O=C1CC[C@H](N2Cc3cc4c(cc3C2=O)OC[C@@H]2CN(CC3COC5(C3)CN(c3ccc([C@H]6c7ccc(O)cc7CC[C@H]6c6ccccc6)cc3)C5)CCN42)C(=O)N1 (single isomer, unassigned) ?
Result string: > 75%

---

- target or test system: ER in MCF-7 cells (Homo sapiens (Human))
- protocol description: In-cell Western (ICW) ER degradation assay in MCF-7 cells
- Format: cell-based
- conditions: MCF-7, ER degradation, 16 hrs treatment; read-out: MCF7 DC50
Please respond with reported DC50 for every item in the list.

COc1cc(N2CCC(CCN3CCC4(CC3)COc3c4cc(OC)c4c3CN([C@H]3CCC(=O)NC3=O)C4=O)CC2)c(F)cc1[C@@H]1c2ccc(O)cc2CC[C@@H]1c1ccccc1 [Compound A226] = < 1 nM
O=C1CC[C@H](Nc2ccc(C3CCN(C[C@@H]4COC5(CCN(c6ccc([C@H]7c8ccc(O)cc8CC[C@H]7c7ccccc7)cc6)CC5)C4)CC3)cc2)C(=O)N1 (single isomer, unassigned) [Compound A50] = < 1 nM
COc1cc(N2CC3(CC(CN4CCN5c6ccc7c(c6OC[C@H]5C4)CN([C@H]4CCC(=O)NC4=O)C7=O)CO3)C2)ccc1[C@@H]1c2ccc(O)cc2CC[C@@H]1c1ccccc1 (single isomer, unassigned) [Compound A48] = 1 to 10 nM
O=C1CC[C@H](N2Cc3c(ccc4c3OCC43CCN(CC4CCC5(CC4)CN(c4ncc([C@H]6c7ccc(O)cc7CC[C@H]6c6ccccc6)cn4)C5)CC3)C2=O)C(=O)N1 [Compound A153] = > 100 nM
COc1cc(N2CC(CCN3CCC4(CC3)COc3c4ccc4c3CN([C@H]3CCC(=O)NC3=O)C4=O)C2)c(F)cc1[C@@H]1c2ccc(O)cc2CC[C@@H]1c1ccccc1 [Compound A206] = 1 to 10 nM

// each listed compound needs a value for DC50
1. COc1cc(N2CCC(CN3CC[C@]4(c5ccc(N[C@H]6CCC(=O)NC6=O)cc5)[C@H](C3)C4(F)F)CC2)ccc1[C@@H]1c2ccc(O)cc2CC[C@@H]1c1ccccc1 [Compound A90]
2. O=C1CC[C@H](N2Cc3cc4c(cc3C2=O)OCC42CCN(CC3CCC4(CC3)CN(c3ccc([C@@H]5c6ccc(O)cc6CC[C@@H]5c5ccccc5)cc3)C4)CC2)C(=O)N1 [Compound A178]
3. COc1cc(N2CCC3(CC2)CC(CN2CCC4(CC2)COc2c4ccc4c2CN([C@H]2CCC(=O)NC2=O)C4=O)C3)c(F)cc1[C@@H]1c2ccc(O)cc2CC[C@@H]1c1ccccc1 [Compound A100]

Result string:
< 1 nM
< 1 nM
< 1 nM

Return reported DC50 values for all items listed beneath this line.
1. O=C1CC[C@H](N2Cc3c(ccc4c3OC[C@H]3CN(CC5CC6(CCN(c7ncc([C@@H]8c9ccc(O)cc9CC[C@@H]8c8ccccc8)cn7)CC6)C5)CCN43)C2=O)C(=O)N1 (single isomer, unassigned) [Compound A140]
2. COc1cc(N2CCC3(CC[C@@H](CN4CCC5(CC4)COc4c5cc(Cl)c5c4CN([C@H]4CCC(=O)NC4=O)C5=O)CO3)CC2)c(F)cc1[C@@H]1c2ccc(O)cc2CC[C@@H]1c1ccccc1 [Compound A234]
3. O=C1CC[C@@H](Nc2ccc(C3CCN(CC4CC5(CCN(c6ccc([C@@H]7c8ccc(O)cc8CC[C@@H]7c7ccccc7)cc6)CC5)C4)CC3)cc2)C(=O)N1 (single isomer, unassigned) [Compound A66]

Result string:
< 1 nM
< 1 nM
1 to 10 nM

Each compound below has a recorded value; state its DC50.
1. O=C1CC[C@H](N2Cc3c(ccc4c3OCC43CCN(CC4CC5(CCN(c6ccc([C@@H]7c8ccc(O)cc8CC[C@@H]7c7ccccc7)cc6)CC5)C4)CC3)C2=O)C(=O)N1 [Compound A181]
2. O=C1CC[C@H](N2Cc3c(ccc4c3OC[C@H]3CN(CC5COC6(C5)CN(c5ccc([C@@H]7c8ccc(O)cc8CC[C@@H]7c7ccccc7)cc5)C6)CCN43)C2=O)C(=O)N1 (single isomer, unassigned) [Compound A40]

Result string:
["< 1 nM", "10 to 100 nM"]
